Known kon of a selection of binders
# Measured Target: T1, rhNR10 (recombinant human NR10) (human, UniProt Q8NI17 20-519, limits assumed)
# T1 construct: also called IL-31 receptor; IL31RA
# T1 sequence: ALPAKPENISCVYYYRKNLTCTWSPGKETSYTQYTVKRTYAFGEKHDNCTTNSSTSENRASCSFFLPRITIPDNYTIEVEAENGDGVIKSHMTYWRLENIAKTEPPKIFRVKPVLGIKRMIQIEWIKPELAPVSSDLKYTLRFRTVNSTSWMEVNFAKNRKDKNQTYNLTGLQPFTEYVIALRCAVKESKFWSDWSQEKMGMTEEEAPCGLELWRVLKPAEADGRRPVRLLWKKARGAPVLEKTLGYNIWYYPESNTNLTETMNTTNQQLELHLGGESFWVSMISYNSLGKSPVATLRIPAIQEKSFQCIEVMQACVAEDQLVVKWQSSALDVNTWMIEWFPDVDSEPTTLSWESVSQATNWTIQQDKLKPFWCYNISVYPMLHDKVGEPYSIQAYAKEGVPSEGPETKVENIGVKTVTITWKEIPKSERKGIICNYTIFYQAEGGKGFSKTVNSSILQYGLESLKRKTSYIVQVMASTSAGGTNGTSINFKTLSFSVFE
# Assay Info: SPR, Biacore T100; antibody captured on Protein A, rhNR10 as analyte
Measurement Label: kon (M⁻¹ s⁻¹)

Binder	Measurement Label	Unit Abbreviation	Recorded Result
H28L17 (H28-M58 / L17) (antibody, V domains shown) VH: QVQLVQSGAEVKKPGASVKVSCKASGYTFTGYVLNWVRQAPGQGLEWMGLINPYNGGTDYNPQFQDRVTITADESTSTAYMELSSLRSEDTAVYYCARDGYDDGPYTLETWGQGTLVTVSS VL: DIQMTQSPSSLSASVGDRVTITCQASEDIYSFVAWYQQKPGKAPKLLIYNAQTEAQGVPSRFSGSGSGTDFTLTISSLQPEDFATYYCQHHYDSPLTFGGGTKVEIKR	kon	M⁻¹ s⁻¹	640000
H92L17 (H92-M58 / L17) (antibody, V domains shown) VH: QVQLVQSGAEVKKPGASVKVSCKASGYTFTGYAMNWVRQAPGQGLEWMGLINPYNGGTDYNPQFQGRVTITADKSTSTAYMELSSLRSEDTAVYYCARDGYDDGPYTLETWGQGTLVTVSS VL: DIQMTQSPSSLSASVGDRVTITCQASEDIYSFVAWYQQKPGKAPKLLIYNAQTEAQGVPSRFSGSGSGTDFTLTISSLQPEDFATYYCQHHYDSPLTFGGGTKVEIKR	kon	M⁻¹ s⁻¹	310000
H78L17 (H78-M58 / L17) (antibody, V domains shown) VH: QVQLVQSGAEVKKPGASVKVSCKASGYTFTGYIMNWVRQAPGQGLEWMGLINPYNGGTDYNPQFQGRVTITADKSTSTAYMELSSLRSEDTAVYYCARDGYDDGPYTLETWGQGTLVTVSS VL: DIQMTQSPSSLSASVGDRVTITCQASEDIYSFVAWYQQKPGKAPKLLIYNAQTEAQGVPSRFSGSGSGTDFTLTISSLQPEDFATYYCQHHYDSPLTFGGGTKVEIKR	kon	M⁻¹ s⁻¹	610000
H42L17 (H42-M58 / L17) (antibody, V domains shown) VH: QVQLVQSGAEVKKPGASVKVSCKASGYTFTGYVLNWVRQAPGQGLEWMGLINPYNGGTDYNPQFQDRVTITADKSTSTAYMELSSLRSEDTAVYYCARDGYDDGPYTLETWGQGTLVTVSS VL: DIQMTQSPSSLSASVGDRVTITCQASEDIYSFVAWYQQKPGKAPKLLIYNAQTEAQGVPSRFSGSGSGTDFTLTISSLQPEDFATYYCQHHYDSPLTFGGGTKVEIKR	kon	M⁻¹ s⁻¹	570000
H57L17 (H57-M58 / L17) (antibody, V domains shown) VH: QVQLVQSGAEVKKPGASVKVSCKASGYTFTGYIMNWVRQAPGQGLEWMGLINPYNGGTDYNPQFQGRVTITADESTSTAYMELSSLRSEDTAVYYCARDGYDDGPYTLETWGQGTLVTVSS VL: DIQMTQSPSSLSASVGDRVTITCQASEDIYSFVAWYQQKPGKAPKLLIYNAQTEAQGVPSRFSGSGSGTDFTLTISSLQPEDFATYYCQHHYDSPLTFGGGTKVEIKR	kon	M⁻¹ s⁻¹	710000

Reference for the values: patent US20110129459A1
